Data origin: paper PMC3904496

test summary: Steady-state plasma pharmacokinetics, phase I trial
Type: in vivo, human
measurement context: human, plasma, po, 4250 mg twice daily
measure name: AUC (ng·h/mL)
State just the number; it will be interpreted in ng·h/mL.

Q) Form field: reported AUC of Cc1c(O)cccc1C(=O)N[C@@H](CSc1ccccc1)[C@H](O)CN1C[C@H]2CCCC[C@H]2C[C@H]1C(=O)NC(C)(C)C
A) 37700

====

test summary: Steady-state plasma pharmacokinetics, phase I trial
Assay type: in vivo, human
measurement context: human, plasma, po, 3000 mg twice daily
measure name: AUC (ng·h/mL)
Write down the numeric answer in ng·h/mL and omit the unit.

Q) Using the record for Cc1c(O)cccc1C(=O)N[C@@H](CSc1ccccc1)[C@H](O)CN1C[C@H]2CCCC[C@H]2C[C@H]1C(=O)NC(C)(C)C , report its AUC.
A) 60900
